target: CDK2/Cyclin E1 (Homo sapiens, UniProt P24941); test: NanoBRET live-cell target engagement, CDK2-NanoLuc/Cyclin E1 in HEK-293; format: binding; details: CDK2/E1; experiment 1; read-out: Inhibition at 10µM (%)
Give measured inhibition at 10 µM for each item. Keep answers brief.
# include the unit after the value

Entry `COC1CN(C(=O)c2ccc3c(N)ncc(-c4ccc(-c5cnn(C)c5)cc4)c3n2)C1` , inhibition at 10 µM reported as -37.1%

Entry `Cn1cc(-c2ccc(-c3cncc(Cl)c3N3CCC4(CCNC4=O)CC3)cc2)cn1` , inhibition at 10 µM reported as -6.4%

Entry `CC(C)N1CCN(c2ccc(Nc3ncc4cc5n(c4n3)C3(CCCCC3)CNC5=O)nc2)CC1` , inhibition at 10 µM reported as -11%

Entry `CN1CC[C@H](c2c(O)cc(O)c3c(=O)cc(-c4ccccc4Cl)oc23)[C@H](O)C1` , inhibition at 10 µM reported as 74.5%
